B1: library; numbered along this chain (parent)
chain: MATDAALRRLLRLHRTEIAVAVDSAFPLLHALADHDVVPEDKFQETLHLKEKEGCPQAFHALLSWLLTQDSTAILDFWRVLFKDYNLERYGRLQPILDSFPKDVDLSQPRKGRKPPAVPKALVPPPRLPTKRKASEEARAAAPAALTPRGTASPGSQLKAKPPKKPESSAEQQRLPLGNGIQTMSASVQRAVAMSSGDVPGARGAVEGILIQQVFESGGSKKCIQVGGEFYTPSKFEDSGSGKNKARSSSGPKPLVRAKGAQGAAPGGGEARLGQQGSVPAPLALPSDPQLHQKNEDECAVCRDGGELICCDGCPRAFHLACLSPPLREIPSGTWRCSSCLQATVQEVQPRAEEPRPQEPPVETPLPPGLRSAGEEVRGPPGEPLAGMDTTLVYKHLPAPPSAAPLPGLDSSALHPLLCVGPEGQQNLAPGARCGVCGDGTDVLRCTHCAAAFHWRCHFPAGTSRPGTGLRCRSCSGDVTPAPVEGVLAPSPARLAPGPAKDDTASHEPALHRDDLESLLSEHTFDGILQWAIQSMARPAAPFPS

variants of: B1; test: AIRE transcriptional activation functional score (insulin promoter-GFP; nonsense median 0, synonymous median 1) (normalised score); higher = higher AIRE activity (more reporter activation); details: with insulin promoter-GFP reporter in HEK293
Class label 1: AIRE transcriptional activation functional score at least 0.5. Class label 0: AIRE transcriptional activation functional score below 0.5.

Threshold query (AIRE transcriptional activation functional score >= 0.5) on `F525R`
label 0

Decide: AIRE transcriptional activation functional score of `R465C` >= 0.5?
label 1

hey, is AIRE transcriptional activation functional score for this one >= 0.5? `E359F`
label 1

Tell me whether AIRE transcriptional activation functional score is at least 0.5 here: `Q157A`
label 1

Can `S71R` be said to have AIRE transcriptional activation functional score at or above 0.5?
label 0
